# tgt: UniProt P28190
# Sequence (P28190 whole entry): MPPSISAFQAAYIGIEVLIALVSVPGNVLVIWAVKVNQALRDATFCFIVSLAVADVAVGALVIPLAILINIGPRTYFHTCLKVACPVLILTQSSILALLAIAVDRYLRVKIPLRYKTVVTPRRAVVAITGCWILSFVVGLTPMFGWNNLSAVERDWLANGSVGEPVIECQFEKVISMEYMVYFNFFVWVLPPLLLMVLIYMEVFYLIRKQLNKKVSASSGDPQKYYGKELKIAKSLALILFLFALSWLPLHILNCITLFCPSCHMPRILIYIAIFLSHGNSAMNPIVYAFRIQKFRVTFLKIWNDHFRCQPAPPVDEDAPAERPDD
Provide the recorded Ki for the entries that follow.
Give a bare numeral; the unit nM is implied.

q: Need Ki, item CC(Cc1ccccc1)Nc1ncnc2c1nnn2Cc1ccccc1 (stereo not given)
a: 575

q: Item under review: c1ccc(Cn2nnc3c(NCC4CCCCC4)ncnc32)cc1 . Reported Ki?
a: 2790

q: Entry under review: CC(Cc1ccccc1)Nc1ncnc2c1nnn2CCc1ccccc1 (stereo not given) . Reported Ki?
a: 2490

q: Consider the compound O=[N+]([O-])c1cccc(Nc2ncnc3c2nnn3CCc2ccccc2)c1 and give its measured Ki.
a: 2250

q: Query: Ki; subject: Clc1ccccc1Cn1nnc2c(NC3CCCC3)ncnc21
a: 21

q: Requested field: Ki. Item: Cc1cccc(Nc2ncnc3c2nnn3Cc2ccccc2)c1
a: 1100

q: Request the reported Ki associated with c1ccc(Cn2nnc3c(NC4CCCC4)ncnc32)cc1
a: 127

q: Report Ki for CC(Nc1ncnc2c1nnn2CCc1ccccc1)c1ccccc1 (stereo not given) please.
a: 2200

q: Which Ki is reported for this compound? Cc1ccc(Nc2ncnc3c2nnn3Cc2ccccc2)cc1
a: 502

q: For the compound CC1CCCC(Nc2ncnc3c2nnn3Cc2ccccc2Cl)C1 (stereo not given) , what Ki is on record?
a: 102

q: Fill blank: measured Ki of the compound C[C@H](Cc1ccccc1)Nc1ncnc2c1nnn2Cc1ccccc1Cl is ____.
a: 39

q: Bench note: what Ki did Clc1ccccc1Cn1nnc2c(NC3CCCCC3)ncnc21 show?
a: 43

q: Can you share its Ki? I mean this compound: Nc1ccc(CNc2ncnc3c2nnn3Cc2ccccc2)cc1
a: 9500

q: For the compound CC1CCCC(Nc2ncnc3c2nnn3Cc2ccccc2)C1 (stereo not given) , what Ki is on record?
a: 770

q: Requested read-out: Ki. Entry: Clc1cccc(Nc2ncnc3c2nnn3Cc2ccccc2)c1
a: 463

q: Which measured Ki value corresponds to O=[N+]([O-])c1ccc(CNc2ncnc3c2nnn3CCc2ccccc2)cc1 ?
a: 245

q: # input compound: Clc1ccccc1Cn1nnc2c(NCC3CCCCC3)ncnc21 ; wanted: its Ki
a: 4260

q: # Ki lookup, item Cc1ccc(Nc2ncnc3c2nnn3Cc2ccccc2Cl)cc1
a: 119

q: Find the recorded Ki belonging to Cc1ccc(Nc2ncnc3c2nnn3CCc2ccccc2)cc1 and report it.
a: 1670

q: Which measured Ki value corresponds to CC(Nc1ncnc2c1nnn2Cc1ccccc1Cl)c1ccccc1 (stereo not given) ?
a: 468

q: Entry CC(Nc1ncnc2c1nnn2Cc1ccccc1)c1ccccc1 (stereo not given) has what Ki?
a: 438
